# System: SW620 cells (KRAS G12V)
# Assay remarks: Cell-based pERK HTRF assay in SW620 cell (Biological Example 4)
# Test context: Homo sapiens, SW-620, SW620 (KRAS G12V) cells
For each record, write down the corresponding IC50.

// field: IC50; key: "N#Cc1c(N)sc2c(F)ccc(-c3c(C(F)(F)F)cc4c(N5CC6CC(C5)O6)nc(OC[C@@]56CCCN5C[C@H](F)C6)nc4c3F)c12" ; value = < 100 nM

IC50 reading for CN(C)C(=O)N1CC[C@H](N(CCF)c2nc(OC[C@@]34CCCN3C[C@H](F)C4)nc3c(F)c(-c4ccc(F)c5sc(N)c(C#N)c45)c(C(F)(F)F)cc23)C1 (atropisomer, axis not shown) : 100 to 1000 nM

Entry under test: COC(=O)N1CC[C@H](N(CCF)c2nc(OC[C@@]34CCCN3C[C@H](F)C4)nc3c(F)c(-c4ccc(F)c5sc(N)c(C#N)c45)c(C(F)(F)F)cc23)C1 (atropisomer, axis not shown) . Its IC50 was < 100 nM

Form: compound = CCN(c1nc(OC[C@@]23CCCN2C[C@H](F)C3)nc2c(F)c(-c3ccc(F)c4sc(N)c(C#N)c34)c(C(F)(F)F)cc12)[C@H]1C[C@H]2CN(CC(F)F)C(=O)N2C1 (atropisomer, axis not shown) ; IC50 = < 100 nM

Reported IC50 of CCN(c1nc(OC[C@@]23CCCN2C[C@H](F)C3)nc2c(F)c(-c3ccc(F)c4sc(N)c(C#N)c34)c(C(F)(F)F)cc12)[C@H]1CCN(C(=O)C2CC2)[C@@H]1C (atropisomer, axis not shown) : < 100 nM

* * *

# Test system: GP2d cells (KRAS G12D)
# Assay remarks: Cell-based pERK HTRF assay in GP2d cell (Biological Example 2)
# Test context: GP2d, GP2d (KRAS G12D) cells, pERK HTRF; class symbols
pIC50: −log10 of the molar value.
Exercise: for every item that follows, state its recorded pIC50.

According to the records, this compound CCOC(=O)N1CC[C@H](N(CC)c2nc(OC[C@@]34CCCN3C[C@H](F)C4)nc3c(F)c(-c4ccc(F)c5sc(N)c(C#N)c45)c(C(F)(F)F)cc23)C1 (atropisomer, axis not shown) displays pIC50 of > 7.00

Per the records, this compound ( CO[C@@H](C)C(=O)N1CC[C@H](N(c2nc(OC[C@@]34CCCN3C[C@H](F)C4)nc3c(F)c(-c4ccc(F)c5sc(N)c(C#N)c45)c(C(F)(F)F)cc23)C2CC2)C1 (atropisomer, axis not shown) ) has pIC50 equal to > 7.00

* * *

# Measured on: Avi-KRAS G12R (1-169) GppNHp/RAF1 RBD-3xFLAG (52-151) (Homo sapiens, UniProt P01116, G12R)
# Construct: Avi-KRAS G12R (1-169)
# Sequence (P01116 1-169 isoform P01116-2 G12R): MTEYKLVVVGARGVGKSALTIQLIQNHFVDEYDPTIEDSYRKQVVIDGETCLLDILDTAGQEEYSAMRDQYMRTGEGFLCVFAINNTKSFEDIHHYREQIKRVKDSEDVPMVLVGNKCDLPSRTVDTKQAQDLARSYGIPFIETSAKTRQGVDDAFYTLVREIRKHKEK
# Assay remarks: Raf1-KRAS G12R-GppNHP disruption HTRF assay (Biological Example 1)
# Assay type: binding
# Test context: KRAS G12R-GppNHp/RAF1 RBD HTRF
pIC50: −log10 of the molar value.
Quantity name: pIC50

Recorded pIC50 (molecule CCC(=O)N1CC(N(C)c2nc(OCC34CCCN3CC(F)C4)nc3c(F)c(-c4ccc(F)c5sc(N)c(C#N)c45)c(C(F)(F)F)cc23)CC1C (stereo not drawn) ): 5.00 to 6.00

Looking up "C[C@@H]1[C@H](N(C)c2nc(OC[C@@]34CCCN3C[C@H](F)C4)nc3c(F)c(-c4ccc(F)c5sc(N)c(C#N)c45)c(Cl)cc23)CCN1C(=O)CF" , I found its pIC50 recorded as 6.00 to 7.00

So for "C[C@@H]1[C@H](N(C)c2nc(OC[C@@]34CCCN3C[C@H](F)C4)nc3c(F)c(-c4ccc(F)c5sc(N)c(C#N)c45)c(C(F)(F)F)cc23)CCN1C(=O)C1(C#N)CC1" , the logged pIC50 turned out to be 6.00 to 7.00

* * *

# Measured on: Avi-KRAS G12V (2-169) GTP/RAF1 RBD-3xFLAG (51-131) (Homo sapiens, UniProt P01116, G12V)
# Construct: Avi-KRAS G12V (2-169)
# Sequence (P01116 2-169 isoform P01116-2 G12V): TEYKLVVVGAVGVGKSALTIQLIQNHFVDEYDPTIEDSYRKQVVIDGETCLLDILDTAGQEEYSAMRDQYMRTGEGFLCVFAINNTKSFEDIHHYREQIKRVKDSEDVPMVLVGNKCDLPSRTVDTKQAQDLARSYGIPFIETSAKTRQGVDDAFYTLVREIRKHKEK
# Assay remarks: Raf1-KRAS G12V-GTP disruption HTRF assay (Biological Example 3)
# Format: binding
# Test context: KRAS G12V, GTP-loaded
pIC50: −log10 of the molar value.
Exercise: state measured pIC50 for each of the molecules provided.

The recorded pIC50 for "CCN(c1nc(OC[C@@]23CCCN2C[C@H](F)C3)nc2c(F)c(-c3ccc(F)c4sc(N)c(C#N)c34)c(C(F)(F)F)cc12)[C@@H]1C[C@@H]2CCC(=O)N2C1" is 5.00 to 6.00

Consider CCN(c1nc(OC[C@@]23CCCN2C[C@H](F)C3)nc2c(F)c(-c3ccc(F)c4sc(N)c(C#N)c34)c(C(F)(F)F)cc12)[C@H]1C[C@H](C)N(C(=O)C2CC2(F)F)C1 (some centres unmarked) . Its measured pIC50 is 6.00 to 7.00

The measured pIC50 associated with CCN(c1nc(OC[C@@]23CCCN2C[C@H](F)C3)nc2c(F)c(-c3ccc(F)c4sc(N)c(C#N)c34)c(C(F)(F)F)cc12)[C@H]1CCN(C(=O)C2C[C@@H]2F)[C@@H]1C (some centres unmarked) reads 6.00 to 7.00

Sure, the documented pIC50 for CCN(c1nc(OC[C@@]23CCCN2C[C@H](F)C3)nc2c(F)c(-c3ccc(F)c4sc(N)c(C#N)c34)c(C(F)(F)F)cc12)[C@H]1CCN(C(=O)CC(F)F)C1 (atropisomer, axis not shown) is ≥ 7.00

The molecule identified as CCN(c1nc(OC[C@@]23CCCN2C[C@H](F)C3)nc2c(F)c(-c3ccc(F)c4sc(N)c(C#N)c34)c(C(F)(F)F)cc12)[C@H]1CCN(C(=O)[C@@H]2CCO2)C1 (atropisomer, axis not shown) registered its pIC50 at ≥ 7.00

* * *

I'd appreciate it if you could supply IC50 values for the items below.
# System: GP2d cells (KRAS G12D)
# Assay remarks: Cell-based pERK HTRF assay in GP2d cell (Biological Example 2)
# Test context: GP2d, GP2d (KRAS G12D) cells, pERK HTRF

Recorded IC50 for CC(=O)N1CCN(c2nc(OC[C@@]34CCCN3C[C@H](F)C4)nc3c(F)c(-c4ccc(F)c5sc(N)c(C#N)c45)c(C(F)(F)F)cc23)C[C@H]1C [Compound 229] on GP2d cells (KRAS G12D) was < 100 nM

Case C[C@H]1C[C@H](N(C)c2nc(OC[C@@]34CCCN3C[C@H](F)C4)nc3c(F)c(-c4ccc(F)c5sc(N)c(C#N)c45)c(C(F)(F)F)cc23)CN1C(=O)C1CC1 [Compound 437] , GP2d cells (KRAS G12D), IC50 recorded as < 100 nM

// assay GP2d cells (KRAS G12D), entry C[C@]1(O)CCCN(c2nc(OC[C@@]34CCCN3C[C@H](F)C4)nc3c(F)c(-c4ccc(F)c5sc(N)c(C#N)c45)c(C(F)(F)F)cc23)C1 [Compound 241] , IC50 value = < 100 nM

Assay GP2d cells (KRAS G12D), sample CN(c1nc(OC[C@@]23CCCN2C[C@H](F)C3)nc2c(F)c(-c3ccc(F)c4scc(C#N)c34)c(C(F)(F)F)cc12)[C@@H]1CCN(C(=O)CO)C1 [Compound 107] , IC50 read: > 1000 nM

The recorded IC50 with GP2d cells (KRAS G12D) for CN(c1nc(OC[C@@]23CCCN2C[C@H](F)C3)nc2c(F)c(-c3ccc(F)c4sc(N)nc34)c(C(F)(F)F)cc12)C1CC(O)C1 (stereo partly drawn) [Compound 8] was 100 to 1000 nM

Tested on GP2d cells (KRAS G12D), the item CN(C)C(=O)c1nc2n(n1)CCN(c1nc(OC[C@@]34CCCN3C[C@H](F)C4)nc3c(F)c(-c4ccc(F)c5sc(N)c(C#N)c45)c(C(F)(F)F)cc13)C2 [Compound 356] showed IC50 equal to < 100 nM

Record N#Cc1c(N)sc2c(F)ccc(-c3c(C(F)(F)F)cc4c(N5CCN6C(=O)CCC6C5)nc(OCC56CCCN5CC(F)C6)nc4c3F)c12 (stereo not drawn) [Compound 412] has GP2d cells (KRAS G12D) IC50 equal to < 100 nM

Record CN(c1nc(OC[C@@]23CCCN2C[C@H](F)C3)nc2c(F)c(-c3ccc(F)c4sc(N)c(C#N)c34)c(C(F)(F)F)cc12)C1CCS(=O)(=O)CC1 [Compound 330] has GP2d cells (KRAS G12D) IC50 equal to < 100 nM

IC50 for GP2d cells (KRAS G12D) with input CN(C)c1nc(OC[C@@]23CCCN2C[C@H](F)C3)nc2c(F)c(-c3ccc(F)c4sc(N)c(C#N)c34)c(C(F)(F)F)cc12 [Compound 153] equals < 100 nM

The value of IC50 recorded for CN(C)C(=O)c1cc2n(n1)CCCN(c1nc(OC[C@@]34CCCN3C[C@H](F)C4)nc3c(F)c(-c4ccc(F)c5sc(N)c(C#N)c45)c(C(F)(F)F)cc13)C2 [Compound 256] when tested on GP2d cells (KRAS G12D) reads < 100 nM

IC50 value, target or system GP2d cells (KRAS G12D), for N#Cc1c(N)sc2c(F)ccc(-c3c(C(F)(F)F)cc4c(N5CCn6nc(N7CCOCC7)cc6C5)nc(OC[C@@]56CCCN5C[C@H](F)C6)nc4c3F)c12 [Compound 485] : < 100 nM

Considering CN(c1nc(OC[C@@]23CCCN2C[C@H](F)C3)nc2c(F)c(-c3ccc(F)c4scc(C#N)c34)c(C(F)(F)F)cc12)[C@@H]1CCN(C(=O)CC#N)C1 [Compound 106] , its IC50 with GP2d cells (KRAS G12D) was recorded as > 1000 nM

IC50 for GP2d cells (KRAS G12D) with input C[C@@]1(O)CCCN(c2nc(OC[C@@]34CCCN3C[C@H](F)C4)nc3c(F)c(-c4ccc(F)c5sc(N)c(C#N)c45)c(C(F)(F)F)cc23)C1 [Compound 224] equals < 100 nM

Value (IC50, GP2d cells (KRAS G12D)) for record C[C@H]1CS(=O)(=O)CCN1c1nc(OC[C@@]23CCCN2C[C@H](F)C3)nc2c(F)c(-c3ccc(F)c4sc(N)c(C#N)c34)c(C(F)(F)F)cc12 [Compound 302] = < 100 nM

Item: CCN(c1nc(OC[C@@]23CCCN2C[C@H](F)C3)nc2c(F)c(-c3ccc(F)c4sc(N)c(C#N)c34)c(C(F)(F)F)cc12)[C@H]1CCN(C(=O)CC#N)C1 (atropisomer, axis not shown) [Compound 546] | System: GP2d cells (KRAS G12D) | IC50: < 100 nM

The observed IC50 for N#Cc1c(N)sc2c(F)ccc(-c3c(C(F)(F)F)cc4c(N5CC(CO)C5)nc(OC[C@@]56CCCN5C[C@H](F)C6)nc4c3F)c12 [Compound 129] when tested with GP2d cells (KRAS G12D) stands at < 100 nM

Value sought: IC50, system GP2d cells (KRAS G12D), item CC(=O)N1CC[C@@](C)(N(C)c2nc(OC[C@@]34CCCN3C[C@H](F)C4)nc3c(F)c(-c4ccc(F)c5sc(N)c(C#N)c45)c(C(F)(F)F)cc23)[C@H]1C [Compound 342] . Result: < 100 nM

Kindly note: GP2d cells (KRAS G12D), CC(=O)N1CC[C@@H](N(C)c2nc(OC[C@@]34CCCN3C[C@H](F)C4)nc3c(F)c(-c4ccc(F)c5sc(N)c(C#N)c45)c(C(F)(F)F)cc23)C1 [Compound 112] , IC50 value reported: < 100 nM

For the compound CN(C[C@@H](O)CO)c1nc(OC[C@@]23CCCN2C[C@H](F)C3)nc2c(F)c(-c3ccc(F)c4sc(N)c(C#N)c34)c(C(F)(F)F)cc12 [Compound 78] , the measured IC50 on GP2d cells (KRAS G12D) was < 100 nM

Given the compound CCN(c1nc(OC[C@@]23CCCN2C[C@H](F)C3)nc2c(F)c(-c3ccc(F)c4sc(N)c(C#N)c34)c(Cl)cc12)[C@@H]1CCN(C(C)=O)[C@@H]1C [Compound 323] and test system GP2d cells (KRAS G12D), the measured IC50 is < 100 nM

Form: item CCC(=O)N1C[C@H](N(CC)c2nc(OC[C@@]34CCCN3C[C@H](F)C4)nc3c(F)c(-c4ccc(F)c5sc(N)c(C#N)c45)c(C(F)(F)F)cc23)C[C@@H]1C (atropisomer, axis not shown) [Compound 533] ; test system GP2d cells (KRAS G12D); IC50: < 100 nM

This collection of values is drawn from patent US20260042764A1.
